Listed here: items and their measured inhibition.
tested on: Mast/stem cell growth factor receptor Kit (Homo sapiens), P10721 [T670I]; details: at 1 µM
Sequence (P10721 whole entry T670I): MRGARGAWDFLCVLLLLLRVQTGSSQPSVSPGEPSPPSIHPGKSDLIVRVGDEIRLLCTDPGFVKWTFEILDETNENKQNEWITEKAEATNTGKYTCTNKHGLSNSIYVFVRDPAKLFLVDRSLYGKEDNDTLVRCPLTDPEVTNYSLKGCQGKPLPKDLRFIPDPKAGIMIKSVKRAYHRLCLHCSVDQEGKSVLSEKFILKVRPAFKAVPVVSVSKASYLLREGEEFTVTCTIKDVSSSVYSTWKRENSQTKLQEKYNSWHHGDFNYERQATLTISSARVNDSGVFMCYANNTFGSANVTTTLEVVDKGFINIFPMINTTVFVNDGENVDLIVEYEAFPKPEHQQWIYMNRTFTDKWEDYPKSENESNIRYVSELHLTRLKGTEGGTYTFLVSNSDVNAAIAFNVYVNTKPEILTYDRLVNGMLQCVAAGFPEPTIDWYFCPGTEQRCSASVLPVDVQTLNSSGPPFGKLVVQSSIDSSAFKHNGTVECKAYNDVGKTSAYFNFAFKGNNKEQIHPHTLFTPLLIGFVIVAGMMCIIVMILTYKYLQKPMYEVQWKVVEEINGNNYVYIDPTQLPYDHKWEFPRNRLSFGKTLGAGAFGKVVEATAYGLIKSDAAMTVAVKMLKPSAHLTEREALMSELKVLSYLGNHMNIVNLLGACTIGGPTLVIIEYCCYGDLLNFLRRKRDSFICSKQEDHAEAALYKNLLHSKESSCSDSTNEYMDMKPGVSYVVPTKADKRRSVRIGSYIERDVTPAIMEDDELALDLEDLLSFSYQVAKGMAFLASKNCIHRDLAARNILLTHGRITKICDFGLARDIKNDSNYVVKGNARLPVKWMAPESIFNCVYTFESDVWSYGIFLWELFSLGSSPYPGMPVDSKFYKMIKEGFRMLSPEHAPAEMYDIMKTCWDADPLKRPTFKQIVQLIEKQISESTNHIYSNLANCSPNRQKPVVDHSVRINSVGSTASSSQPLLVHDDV
PROPERTY NAME: inhibition (%)

COMPOUND: c1ccc(Oc2ccc(Nc3ncc(-c4ccccc4)o3)cc2)cc1
SYSTEM: Mast/stem cell growth factor receptor Kit (Homo sapiens), P10721 [T670I]
PROPERTY NAME: inhibition
MEASURED NUMBER: 5.55

COMPOUND: COc1cc2ncn(-c3cc(OCc4cccs4)c(C(N)=O)s3)c2cc1OC
SYSTEM: Mast/stem cell growth factor receptor Kit (Homo sapiens), P10721 [T670I]
PROPERTY NAME: inhibition
MEASURED NUMBER: 7.04

COMPOUND: COc1cc(Nc2ncc3c(C)nc(-c4cccc(Oc5ccccc5)c4)n3n2)cc(OC)c1OC
SYSTEM: Mast/stem cell growth factor receptor Kit (Homo sapiens), P10721 [T670I]
PROPERTY NAME: inhibition
MEASURED NUMBER: -0.67

COMPOUND: O=C(Nc1n[nH]c2cc(-c3cc(F)ccc3F)ccc12)C1CC1
SYSTEM: Mast/stem cell growth factor receptor Kit (Homo sapiens), P10721 [T670I]
PROPERTY NAME: inhibition
MEASURED NUMBER: 3.43

COMPOUND: NC(=O)c1cc(-c2ccc(F)cc2)cc(-c2ccncc2)c1N
SYSTEM: Mast/stem cell growth factor receptor Kit (Homo sapiens), P10721 [T670I]
PROPERTY NAME: inhibition
MEASURED NUMBER: 8.15

COMPOUND: Fc1ccc(-c2nc3n(c2-c2ccncc2)CCS3)cc1
SYSTEM: Mast/stem cell growth factor receptor Kit (Homo sapiens), P10721 [T670I]
PROPERTY NAME: inhibition
MEASURED NUMBER: 2.22

COMPOUND: O=C1NC(=O)C(c2cccc(Cl)c2)=C1Nc1ccc(Cl)c(C(=O)O)c1
SYSTEM: Mast/stem cell growth factor receptor Kit (Homo sapiens), P10721 [T670I]
PROPERTY NAME: inhibition
MEASURED NUMBER: 4.22

COMPOUND: O=C(Nc1n[nH]c2nc(-c3ccc(O)cc3)c(Br)cc12)C1CC1
SYSTEM: Mast/stem cell growth factor receptor Kit (Homo sapiens), P10721 [T670I]
PROPERTY NAME: inhibition
MEASURED NUMBER: 4.94

COMPOUND: NC(=O)Cc1ccccc1Oc1nccc(-c2c(-c3ccc(F)cc3)ncn2C2CCNCC2)n1
SYSTEM: Mast/stem cell growth factor receptor Kit (Homo sapiens), P10721 [T670I]
PROPERTY NAME: inhibition
MEASURED NUMBER: -1.27

COMPOUND: Clc1ccc(CNc2nccc(-c3cnn4ncccc34)n2)cc1
SYSTEM: Mast/stem cell growth factor receptor Kit (Homo sapiens), P10721 [T670I]
PROPERTY NAME: inhibition
MEASURED NUMBER: 6.47

COMPOUND: c1ccc(-c2n[nH]cc2-c2ccnc(-c3ccc(OCCN4CCOCC4)cc3)c2)nc1
SYSTEM: Mast/stem cell growth factor receptor Kit (Homo sapiens), P10721 [T670I]
PROPERTY NAME: inhibition
MEASURED NUMBER: -2.32

COMPOUND: N#Cc1ccc(Oc2nccc(-c3c(-c4ccc(F)cc4)ncn3C3CCNCC3)n2)cc1
SYSTEM: Mast/stem cell growth factor receptor Kit (Homo sapiens), P10721 [T670I]
PROPERTY NAME: inhibition
MEASURED NUMBER: 4.72

COMPOUND: Cc1ccc(C(=O)NC2CCC2)cc1-c1ccc(C(=O)NCC2CC2)cc1
SYSTEM: Mast/stem cell growth factor receptor Kit (Homo sapiens), P10721 [T670I]
PROPERTY NAME: inhibition
MEASURED NUMBER: -0.64

COMPOUND: Nc1nccc(-c2c(-c3ccc(F)cc3)ncn2C2CCC(O)CC2)n1 (configuration not stated)
SYSTEM: Mast/stem cell growth factor receptor Kit (Homo sapiens), P10721 [T670I]
PROPERTY NAME: inhibition
MEASURED NUMBER: -0.69

COMPOUND: CCc1cccc(CC)c1/C=C/c1cncc(C(=O)NC)c1
SYSTEM: Mast/stem cell growth factor receptor Kit (Homo sapiens), P10721 [T670I]
PROPERTY NAME: inhibition
MEASURED NUMBER: 2.14

COMPOUND: Fc1ccc(-c2ncn(C3CCNCC3)c2-c2ccnc(Oc3ccc(F)c(F)c3)n2)cc1
SYSTEM: Mast/stem cell growth factor receptor Kit (Homo sapiens), P10721 [T670I]
PROPERTY NAME: inhibition
MEASURED NUMBER: 1.83

COMPOUND: CCS(=O)(=O)c1ccc(OC)c(Nc2ncc(-c3ccccc3Cl)o2)c1
SYSTEM: Mast/stem cell growth factor receptor Kit (Homo sapiens), P10721 [T670I]
PROPERTY NAME: inhibition
MEASURED NUMBER: 24.3

COMPOUND: CN(C)CCCNc1nccc(-c2c(-c3ccc(F)cc3)nn3cc(C(F)(F)F)ccc23)n1
SYSTEM: Mast/stem cell growth factor receptor Kit (Homo sapiens), P10721 [T670I]
PROPERTY NAME: inhibition
MEASURED NUMBER: 0.14

COMPOUND: Fc1ccc(-c2ncn(C3CCNCC3)c2-c2ccnc(Oc3ccc(Oc4ccccc4)cc3)n2)cc1
SYSTEM: Mast/stem cell growth factor receptor Kit (Homo sapiens), P10721 [T670I]
PROPERTY NAME: inhibition
MEASURED NUMBER: 1.82

COMPOUND: CCN(CC)Cc1ccc(Nc2nccc(-c3cnn4ncccc34)n2)cc1
SYSTEM: Mast/stem cell growth factor receptor Kit (Homo sapiens), P10721 [T670I]
PROPERTY NAME: inhibition
MEASURED NUMBER: 80.9

COMPOUND: CCc1nccc2c1nc(-c1nonc1N)n2CC
SYSTEM: Mast/stem cell growth factor receptor Kit (Homo sapiens), P10721 [T670I]
PROPERTY NAME: inhibition
MEASURED NUMBER: -2.18

COMPOUND: O=C1Nc2ccc(I)cc2C1=Cc1cc(Br)c(O)c(Br)c1
SYSTEM: Mast/stem cell growth factor receptor Kit (Homo sapiens), P10721 [T670I]
PROPERTY NAME: inhibition
MEASURED NUMBER: 4.39
